The entries below are paired with their reported pIC50.
Target: human TLR7 (Homo sapiens, UniProt Q9NYK1)
Sequence (Q9NYK1 27-1049): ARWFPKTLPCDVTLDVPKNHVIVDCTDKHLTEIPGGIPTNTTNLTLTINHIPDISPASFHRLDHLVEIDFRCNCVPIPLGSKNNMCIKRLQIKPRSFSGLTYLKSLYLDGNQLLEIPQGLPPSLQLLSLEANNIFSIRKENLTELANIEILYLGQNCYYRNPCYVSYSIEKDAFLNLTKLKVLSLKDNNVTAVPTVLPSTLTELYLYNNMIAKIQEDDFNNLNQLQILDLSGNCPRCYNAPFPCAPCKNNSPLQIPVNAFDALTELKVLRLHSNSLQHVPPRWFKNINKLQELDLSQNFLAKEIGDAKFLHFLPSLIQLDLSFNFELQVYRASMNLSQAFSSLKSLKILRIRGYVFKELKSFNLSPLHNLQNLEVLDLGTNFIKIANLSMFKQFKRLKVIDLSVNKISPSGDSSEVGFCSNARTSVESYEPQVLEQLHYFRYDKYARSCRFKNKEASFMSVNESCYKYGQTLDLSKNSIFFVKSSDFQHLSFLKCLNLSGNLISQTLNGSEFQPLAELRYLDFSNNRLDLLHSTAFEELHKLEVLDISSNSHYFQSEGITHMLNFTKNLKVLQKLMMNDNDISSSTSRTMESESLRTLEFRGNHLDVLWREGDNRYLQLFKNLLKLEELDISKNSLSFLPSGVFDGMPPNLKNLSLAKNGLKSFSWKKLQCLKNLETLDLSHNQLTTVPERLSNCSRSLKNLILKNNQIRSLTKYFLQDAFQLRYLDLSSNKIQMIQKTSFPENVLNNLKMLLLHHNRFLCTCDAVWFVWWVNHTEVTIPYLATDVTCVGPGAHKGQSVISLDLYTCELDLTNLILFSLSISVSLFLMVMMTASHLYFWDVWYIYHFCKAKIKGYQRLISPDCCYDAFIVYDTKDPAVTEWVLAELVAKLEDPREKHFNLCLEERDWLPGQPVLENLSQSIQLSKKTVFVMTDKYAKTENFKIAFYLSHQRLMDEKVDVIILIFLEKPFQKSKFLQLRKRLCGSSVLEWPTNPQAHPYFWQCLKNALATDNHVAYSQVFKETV
Assay: TLR7 inhibition reporter assay (HEK-Blue cells, SEAP reporter, gardiquimod stimulation)
Settings: HEK-Blue cells overexpressing human TLR7, SEAP reporter, gardiquimod 7.5 μM
Text: TLR7/8/9 Inhibition Reporter Assays HEK-Blue™-cells (Invivogen) overexpressing human TLR7, TLR8 or TLR9 receptors were used for screening inhibitors of these receptors using an inducible SEAP (secreted embryonic alkaline phosphatase) reporter gene under the control of the IFN-β minimal promoter fused to five NF-κB and AP-1-binding sites. […]
Answer as the number alone; pIC50 is minus log10 of concentration in mol/L.

Identify pIC50 associated with the molecule CCN(C)CC(=O)NC1CCC(c2ccc3[nH]c(-c4cc(OC)c5ncnn5c4)c(C(C)C)c3c2)CC1 (centres unmarked)
9.36

Identify pIC50 associated with the molecule COc1cc(-c2[nH]c3ccc(C4CCCN(CC(C)(C)O)C4)cc3c2C(C)C)cn2ncnc12 (centres unmarked) [Example 249]
8.70

Identify pIC50 associated with the molecule COc1cc(-c2[nH]c3ccc(C4CCC(NC(=O)CN5CCOCC5)CC4)cc3c2C(C)C)cn2ncnc12 (centres unmarked) [Example 141]
8.70

Identify pIC50 associated with the molecule Cc1c(-c2[nH]c3ccc(C4CCCN(CC(=O)N(C)C)C4)cc3c2C(C)C)cn2ncnc2c1C (centres unmarked) [Example 226]
7.77

Identify pIC50 associated with the molecule CNC1CCC(c2ccc3[nH]c(-c4cc(C)c5ncnn5c4)c(C(C)C)c3c2)CC1 (single isomer, unassigned) [Example 56]
9.77

Identify pIC50 associated with the molecule COc1cc(-c2[nH]c3ccc(C4CCC(N)CC4)cc3c2C(C)C)cn2ncnc12 (single isomer, unassigned) [Example 1]
9.31

Identify pIC50 associated with the molecule COc1cc(-c2[nH]c3ccc(C4CCC(N(C)C(C)C)C4)cc3c2C(C)C)cn2ncnc12 (single isomer, unassigned) [Example 276]
9.19

Identify pIC50 associated with the molecule CNC(=O)CNC1CCC(c2ccc3[nH]c(-c4cc(C)c5ncnn5c4)c(C(C)C)c3c2)CC1 (single isomer, unassigned) [Example 162]
9.25
